# assay system: Guanine nucleotide-binding protein G(i) subunit alpha-1 (Homo sapiens) (UniProt P63096)
# Sequence (P63096 whole entry, looked up): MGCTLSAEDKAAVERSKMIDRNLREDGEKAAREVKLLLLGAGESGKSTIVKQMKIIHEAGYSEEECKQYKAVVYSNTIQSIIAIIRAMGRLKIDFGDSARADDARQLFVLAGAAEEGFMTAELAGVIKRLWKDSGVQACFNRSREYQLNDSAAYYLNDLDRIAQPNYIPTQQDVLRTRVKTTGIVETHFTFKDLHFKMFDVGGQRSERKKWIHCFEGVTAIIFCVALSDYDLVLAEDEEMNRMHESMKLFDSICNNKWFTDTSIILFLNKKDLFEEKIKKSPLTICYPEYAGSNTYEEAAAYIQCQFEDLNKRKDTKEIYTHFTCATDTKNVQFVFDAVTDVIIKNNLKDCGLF
# test: qHTS Assay for Inhibitors of RGS12 GoLoco Motif Activity (Green Fluorophore) (AID 879)
# run conditions: Galphai1/FITC-RGS12 GoLoco peptide, fluorescence polarization; series mostly up to 57.1 µM
Active and inactive are the calls of the source. The call rests on the fitted dose curve; in most records, active means well fitted curve in the direction sought with a large enough effect; inconclusive means small, poorly fitted or top-dose-only effect, or another doubt; inactive means no such curve, though single readings can be large or run the other way.
Select the matching outcome among 1 (yes) for active, 0 (no) for inactive

Some solved entries appear below for comparison.
1. NC(N)=Nc1ccc2[nH]c3c(c2c1)C[C@]1(O)[C@@H]2Cc4ccc(O)c5c4[C@]1(CCN2CC1CC1)[C@H]3O5    1 (yes)
2. C=C(C)[C@H]1Cc2c(ccc3c2O[C@H]2COc4cc(OC)c(OC)cc4[C@@H]2C3=O)O1    0 (no)
3. C=CCN1C[C@@H](C)N([C@H](c2ccc(C(=O)N(CC)CC)cc2)c2cccc(OC)c2)C[C@H]1C    0 (no)

Input line: Please let me know the test result on file for CN1[C@@H]2CC[C@H]1CC(O[C@@H](c1ccccc1)c1ccccc1N)C2 (stereo not given in full) .
Output line: 0 (no)

Input line: Please let me know the test result on file for CCCC[N+]1(C)[C@@H]2CC(OC(=O)[C@@H](CO)c3ccccc3)C[C@H]1[C@H]1O[C@H]12 (stereo not given in full) .
Output line: 0 (no)

Input line: Please let me know the test result on file for `C[C@]1(C(=O)O)[C@@H]2CC[C@@H](O2)[C@@]1(C)C(=O)O` .
Output line: 0 (no)

Input line: Please let me know the test result on file for CCCCCCCCCCCCCC(=O)O[C@H]1[C@@H](C)[C@@]2(O)[C@@H](C=C(CO)C[C@]3(O)C(=O)C(C)=C[C@@H]23)C2C(C)(C)[C@]21OC(C)=O (stereo not given in full) .
Output line: 0 (no)

* * *

# assay system: Thyroid hormone receptor beta (Homo sapiens) (UniProt P10828)
# Sequence (P10828 whole entry, looked up): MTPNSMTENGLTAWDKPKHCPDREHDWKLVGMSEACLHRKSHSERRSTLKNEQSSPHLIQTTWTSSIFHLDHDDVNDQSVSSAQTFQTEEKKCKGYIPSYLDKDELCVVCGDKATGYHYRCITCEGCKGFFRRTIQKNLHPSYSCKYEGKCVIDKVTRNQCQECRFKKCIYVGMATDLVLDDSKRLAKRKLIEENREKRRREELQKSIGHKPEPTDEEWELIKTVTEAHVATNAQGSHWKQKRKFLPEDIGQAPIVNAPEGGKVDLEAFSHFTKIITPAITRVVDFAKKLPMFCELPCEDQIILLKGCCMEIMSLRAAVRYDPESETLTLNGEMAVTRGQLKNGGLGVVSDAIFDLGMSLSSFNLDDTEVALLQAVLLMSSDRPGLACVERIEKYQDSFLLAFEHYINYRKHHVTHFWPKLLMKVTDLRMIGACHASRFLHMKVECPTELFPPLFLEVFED
# test: qHTS assay for small molecule antagonists of thyroid hormone receptor beta signaling (AID 588547);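 further: cells stimulated with 0.4 nM T3 agonist during compound exposure; on the % scale 0 is the no-effect control and ±100 the full control effect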
# run conditions: TR-UAS-bla HEK293, beta-lactamase ratio, antagonist mode, 18 h
# From the text: NIH Chemical Genomics Center [NCGC] U.S. Environmental Protection Agency [EPA] National Institutes of Environmental Health Sciences [NIEHS] National Toxicology Program [NTP] […] NCGC Assay Protocol Summary Using a beta-lactamase reporter-gene under control of the TR response element, a cell-based assay [GeneBLAzer TR-UAS-bla-GripTite assay developed by Invitrogen] was used to measure TR-beta signaling in antagonist mode. […] Detection; Fluorescence; Envision plate reader
Results filed as inconclusive are left out.
property measured: activity change % (negative = inhibition) (%)
Response body: numeric value in %, unit text excluded.

Input line: Name the recorded activity change % (negative = inhibition) of the compound listed here: CCOP(=O)(NC(C)C)Oc1ccc(S(C)(=O)=O)c(C)c1 (stereo not drawn)
Output line: 9.01

Input line: Name the recorded activity change % (negative = inhibition) of the compound listed here: CCOP(=S)(Oc1cnc(C(C)(C)C)nc1)OC(C)C (stereo not drawn)
Output line: 4.48

Input line: Name the recorded activity change % (negative = inhibition) of the compound listed here: O=C(O)C1C(C(=O)O)C2(Cl)C(Cl)=C(Cl)C1(Cl)C2(Cl)Cl (stereo not drawn)
Output line: -20.8

Input line: Name the recorded activity change % (negative = inhibition) of the compound listed here: COCc1cnc(C2=NC(C)(C(C)C)C(=O)N2)c(C(=O)O)c1 (stereo not drawn)
Output line: -1.58

Input line: Name the recorded activity change % (negative = inhibition) of the compound listed here: `Cc1cc(C)nc(Nc2ccccc2)n1`
Output line: -4.91

Input line: Name the recorded activity change % (negative = inhibition) of the compound listed here: `O=C=Nc1ccc(Cl)cc1`
Output line: -1.95

Input line: Name the recorded activity change % (negative = inhibition) of the compound listed here: CC(C)C1(C)N=C(c2ncccc2C(=O)O)NC1=O (stereo not drawn)
Output line: 2.89

Input line: Name the recorded activity change % (negative = inhibition) of the compound listed here: `COc1cc(Cl)c(OC)cc1Cl`
Output line: 4.96

Input line: Name the recorded activity change % (negative = inhibition) of the compound listed here: Cc1cc(Cl)ccc1OC(C)C(=O)O (stereo not drawn)
Output line: -3.04

Input line: Name the recorded activity change % (negative = inhibition) of the compound listed here: `N#CCNC(=O)c1cnccc1C(F)(F)F`
Output line: 15.2

Input line: Name the recorded activity change % (negative = inhibition) of the compound listed here: `COC(C)(C)CCC[C@H](C)C/C=C/C(C)=C/C(=O)OC(C)C`
Output line: -10.3

Input line: Name the recorded activity change % (negative = inhibition) of the compound listed here: `Cc1ccccc1C(=O)Nc1cccc(OC(C)C)c1`
Output line: 5.62

Input line: Name the recorded activity change % (negative = inhibition) of the compound listed here: `CCOP(=S)(S)OCC`
Output line: 8.37

* * *

# test: Validation screen for inhibitors of Lassa infection (AID 463096); further: on the % scale 0 is the no-effect control and ±100 the full control effect
# run conditions: Lassa virus infection, cell-based; series mostly up to 46.1 µM
Results filed as inconclusive are left out. The source made the active and inactive calls. Calls come from the whole dose curve.
Select the matching outcome among YES = active, NO = inactive

Some solved entries appear below for comparison.
1. [N-]=[N+]=Nc1ccc(C(=O)CSC[C@H](NC(=O)CC[C@H](N)C(=O)O)C(=O)NCC(=O)O)cc1    NO
2. CC(N)=NCCCC(N)C(=O)O (stereo not drawn)    NO

Now consider a different compound.
Input line: Please let me know the test result on file for `CC(N)=NCc1cccc(CN)c1` .
Output line: NO

* * *

Recorded activation, one value per entry.
# assay system: Androgen receptor (Homo sapiens)
# test: qHTS assay for small molecule agonists of androgen receptor signaling (AID 588515); further: on the % scale 0 is the no-effect control and ±100 the full control effect
# run conditions: AR-UAS-bla HEK293, beta-lactamase ratio, agonist 16 h; active compounds read high
# Experimental: NIH Chemical Genomics Center [NCGC] U.S. Environmental Protection Agency [EPA] National Institutes of Environmental Health Sciences [NIEHS] National Toxicology Program [NTP] […] NCGC Assay Protocol Summary Using a beta-lactamase reporter-gene under control of the AR response element, a cell-based assay [GeneBLAzer AR-UAS-bla-GripTite assay developed by Invitrogen] was used to measure AR ligands signaling. […] Library compounds were measured for their ability to stimulate the reporter gene activity. […]
Results filed as inconclusive are left out.
Response body: numeric value in %, unit text excluded.

Record excerpt, results attached:
1) Cc1ccccc1CO[C@@H]1C[C@@]2(C(C)C)CC[C@]1(C)O2    -0.477
2) COP(=O)(OC)O/C(=C\Cl)c1cc(Cl)c(Cl)cc1Cl    -13
3) CCOC1Oc2ccc(OS(C)(=O)=O)cc2C1(C)C (stereo not given)    -8.07
4) O=C1c2ccccc2C(=O)C1C(=O)C(c1ccccc1)c1ccc(Cl)cc1 (stereo not given)    -4.67

Input line: Name the recorded activation of the molecule listed here: `CCSCCSP(=O)(OC)OC`
Output line: -9.34

Input line: Name the recorded activation of the molecule listed here: `CCCOc1nn(C(=O)NS(=O)(=O)c2ccccc2C(=O)OC)c(=O)n1C`
Output line: 9.43

Input line: Name the recorded activation of the molecule listed here: `C=CC(=O)OCCCCCC(C)C`
Output line: 3.1

Input line: Name the recorded activation of the molecule listed here: `ClC1=C(Cl)[C@@]2(Cl)[C@H]3C[C@@H](Cl)[C@H](Cl)[C@H]3[C@@]1(Cl)C2(Cl)Cl`
Output line: -0.104

Input line: Name the recorded activation of the molecule listed here: `CCOP(=S)(S)OCC`
Output line: 24.9

Input line: Name the recorded activation of the molecule listed here: `CCNS(=O)(=O)C(F)(F)C(F)(F)C(F)(F)C(F)(F)C(F)(F)C(F)(F)C(F)(F)C(F)(F)F`
Output line: 7.01

Input line: Name the recorded activation of the molecule listed here: `c1ccc2c(c1)c1cccc3ccc4cccc2c4c31`
Output line: 7.55

* * *

# System: DIV30
# test: qHTS profiling for inhibitors of Plasmodium falciparum proliferation (AID 504749); further: nearly all actives have a fitted effect of over 60% in size
# run conditions: P. falciparum in erythrocytes, SYBR Green DNA, 72 h; series mostly up to 28.7 µM
Results filed as inconclusive are left out. Active and inactive are the calls of the source. Calls follow the shape of the dose curve; as a rule, active = well fitted inhibition curve with a large enough effect; inconclusive = small, poorly fitted or top-dose-only effect; inactive = flat fitted curve, though single readings scatter.
Select the matching outcome among yes (1) for active, no (0) for inactive

Some solved entries appear below for comparison.
1. CCOC(=O)c1cncn1[C@@H](C)c1ccccc1    no (0)
2. C=C1Nc2ccccc2C(=O)N1c1ccccc1C    no (0)
3. CCCCCCC(=O)O[C@H]1CC[C@H]2[C@@H]3CCC4CC(=O)C=C(C)[C@]4(C)[C@H]3CC[C@]12C (some centres not stated)    no (0)
4. CC(Cc1ccccc1)N(C)C (configuration not stated)    no (0)
5. OC[C@@H](O)[C@H]1O[C@@H]2OC(C(Cl)(Cl)Cl)O[C@H]2[C@H]1O (some centres not stated)    no (0)

Input line: Please let me know the test result on file for CCCCCc1cc(O)c2c(c1)OC(C)(C)C1CC=C(C)CC21 (configuration not stated) .
Output line: yes (1)

Input line: Please let me know the test result on file for CC(=O)[C@H]1CC[C@H]2C3CC[C@H]4C[C@H](O)CC[C@]4(C)C3CC[C@]12C (some centres not stated) .
Output line: no (0)

Input line: Please let me know the test result on file for CCOC(=O)/C=C(C)/C=C/CC(C)CCCC(C)C (configuration not stated) .
Output line: no (0)

Input line: Please let me know the test result on file for CC1OC(O[C@H]2C[C@@H](O)[C@]3(CO)[C@@H]4C(CC[C@]3(O)C2)[C@@]2(O)CC[C@H](C3=CC(=O)OC3)[C@@]2(C)C[C@H]4O)C(O)C(O)C1O (some centres not stated) .
Output line: no (0)

Input line: Please let me know the test result on file for CCCN1CCCC2Cc3nc(N)ncc3CC21 (configuration not stated) .
Output line: no (0)

Input line: Please let me know the test result on file for C#C[C@]1(O)CC[C@H]2[C@@H]3CCC4=CC(=O)CCC4(C)[C@H]3CCC21C (some centres not stated) .
Output line: no (0)

Input line: Please let me know the test result on file for `CN(C)[C@@H](Cc1ccccc1)c1ccccc1` .
Output line: no (0)

Input line: Please let me know the test result on file for COC(=O)C1C(OC(=O)c2ccccc2)CC2CCC1N2C (configuration not stated) .
Output line: no (0)

Input line: Please let me know the test result on file for C[C@]12CCC3C(CCC4=C(Cl)C(=O)CC[C@@]43C)C1CCC2O (some centres not stated) .
Output line: no (0)
